Test system: human monocyte-derived macrophages
assay-text: Cytotoxicity, AlamarBlue method
Assay type: cell-based
measurement-conditions: three days of exposure; AlamarBlue
experimental-endpoint: CC90 (µM)

[
  {
    "query-smiles": "CCCOc1ccc(-c2cc(OCCN3CCNCC3)c3ccccc3n2)cc1",
    "experimental-endpoint": "CC90",
    "unit-tag": "µM",
    "measured-result": 12.7
  }
]

###

assay-text: Cytotoxicity, AlamarBlue method
Assay type: cell-based, human
measurement-conditions: human

[
  {
    "compound": "CN(C)CCCN1c2ccccc2Sc2ccc(Cl)cc21 [CPZ, chlorpromazine]",
    "unit-tag": "µM",
    "CC90 at 3 days": 37
  }
]

###

assay-text: Cytotoxicity, AlamarBlue method
Type: cell-based, human
measurement-conditions: human
experimental-endpoint: CC50 at 3 days (µM)

[
  {
    "query-smiles": "CN(C)CCCN1c2ccccc2Sc2ccc(Cl)cc21",
    "experimental-endpoint": "CC50 at 3 days",
    "measured-result": 22.2
  }
]

###

assay-text: Cytotoxicity, AlamarBlue method
Assay type: cell-based, human
measurement-conditions: human, human monocyte-derived macrophages; three days of exposure; AlamarBlue; read-out: CC50
Peptide text beside a SMILES is read from it. * marks the point of attachment. βNA = c1ccc2cc(N*)ccc2c1
experimental-endpoint: CC50 at 3 days (µM)

[
  {
    "compound": "N=C(N)NCCC[C@H](NC(=O)[C@@H](N)Cc1ccccc1)C(=O)Nc1ccc2ccccc2c1 [PAβN] (H-Phe-Arg-βNA)",
    "experimental-endpoint": "CC50 at 3 days",
    "measured-result": 1270
  }
]
